system: SKOV3 (human ovarian carcinoma) cell line; assay: Cytotoxicity against SKOV3 cell line; conditions: Table 2
Kindly note that classification relies on SKOV3 IC50 with these boundaries: bottom range: < 0.2 ng/mL; center range: ≥ 0.2 ng/mL and < 10 ng/mL; top range: ≥ 10 ng/mL

Exam item: Band of COc1ccc(C[C@H]2NC(=O)CC(C[C@H](O)[C@H](C)/C=C/c3ccccc3)OC(=O)[C@H](CC(C)C)OC(=O)[C@H](C)CNC2=O)cc1Cl (stereo partly drawn) ?
Marked response: top range

Exam item: Band of COc1ccc(CC2NC(=O)CCCC(C(C)C3OC3c3ccccc3)OC(=O)C(CC(C)C)OC(=O)C(C)CNC2=O)cc1Cl (stereo not drawn) ?
Marked response: bottom range

Exam item: Band of COc1ccc(C[C@H]2NC(=O)/C=C/C[C@@H]([C@H](C)/C=C/c3ccccc3)OC(=O)[C@H](CC(C)C)OC(=O)[C@H](C)CNC2=O)cc1 ?
Marked response: top range

Exam item: Band of COc1ccc(C[C@H]2NC(=O)/C=C/C[C@@H]([C@H](C)/C=C/c3ccccc3)OC(=O)[C@H](CC(C)C)OC(=O)[C@H](C)CNC2=O)cc1Cl ?
Marked response: center range

Exam item: Band of COc1ccc(C[C@H]2NC(=O)/C=C/C[C@@H]([C@H](C)/C=C/c3ccccc3)OC(=O)[C@H](CC(C)C)OC(=O)CCNC2=O)cc1Cl ?
Marked response: center range
